Target: Estrogen receptor (Rattus norvegicus) (UniProt P06211)
Sequence (P06211 whole entry, looked up): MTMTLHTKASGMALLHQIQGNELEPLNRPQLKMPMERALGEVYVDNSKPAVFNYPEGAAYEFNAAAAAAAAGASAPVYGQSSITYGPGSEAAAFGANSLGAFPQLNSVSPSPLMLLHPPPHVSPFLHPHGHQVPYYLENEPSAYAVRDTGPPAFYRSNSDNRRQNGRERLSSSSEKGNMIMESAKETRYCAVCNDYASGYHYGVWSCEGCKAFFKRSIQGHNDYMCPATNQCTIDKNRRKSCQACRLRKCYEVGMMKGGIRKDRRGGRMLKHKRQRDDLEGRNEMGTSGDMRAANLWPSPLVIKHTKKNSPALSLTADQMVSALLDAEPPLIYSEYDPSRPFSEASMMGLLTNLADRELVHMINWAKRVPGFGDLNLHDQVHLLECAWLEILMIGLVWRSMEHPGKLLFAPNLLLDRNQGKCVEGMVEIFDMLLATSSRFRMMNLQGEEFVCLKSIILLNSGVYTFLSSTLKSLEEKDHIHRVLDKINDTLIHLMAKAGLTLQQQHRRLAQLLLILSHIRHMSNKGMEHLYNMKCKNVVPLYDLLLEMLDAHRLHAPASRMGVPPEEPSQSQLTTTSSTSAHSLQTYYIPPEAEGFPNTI
Test: DSSTox (KIERBL) EPA Estrogen Receptor Ki Binding Study (Laws et al.) Database
Conditions: Rat uterine cytosol ER, 3H-estradiol competitive binding; TestedRange_microM: 25-75
Overview of recorded Potency for various compounds

{"smiles string": "O=C(OCc1ccccc1)c1ccc(O)cc1", "Potency": "34.2 µM"}

Okay, next one:
Can you look up the measured Potency of "CC(C)(c1ccc(O)cc1)c1ccc(O)cc1" for me?
24.8 µM

====

Biological target: Estrogen receptor (Rattus norvegicus) (UniProt P06211)
Test: DSSTox (KIERBL) EPA Estrogen Receptor Ki Binding Study (Laws et al.) Database
Settings: Rat uterine cytosol ER, 3H-estradiol competitive binding; TestedRange_microM: 3-30
measure name: Potency

Query the reported Potency for Estrogen receptor (Rattus norvegicus) (UniProt P06211); item: "CC(C)(c1ccccc1)c1ccc(O)cc1"
16.5 µM
